B1: GFP–WDR34-WT [human] / WDR60 [human (endogenous in RPE1)] (parent)
chain 1: MATRAQPGPLSQAGSAGVAALATVGVASGPGPGRPGPLQDETLGVASVPSQWRAVQGIRWETKSCQTASIATASASAQARNHVDAQVQTEAPVPVSVQPPSQYDIPRLAAFLRRVEAMVIRELNKNWQSHAFDGFEVNWTEQQQMVSCLYTLGYPPAQAQGLHVTSISWNSTGSVVACAYGRLDHGDWSTLKSFVCAWNLDRRDLRPQQPSAVVEVPSAVLCLAFHPTQPSHVAGGLYSGEVLVWDLSRLEDPLLWRTGLTDDTHTDPVSQVVWLPEPGHSHRFQVLSVATDGKVLLWQGIGVGQLQLTEGFALVMQQLPRSTKLKKHPRGETEVGATAVAFSSFDPRLFILGTEGGFPLKCSLAAGEAALTRMPSSVPLRAPAQFTFSPHGGPIYSVSCSPFHRNLFLSAGTDGHVHLYSMLQAPPLTSLQLSLKYLFAVRWSPVRPLVFAAASGKGDVQLFDLQKSSQKPTVLIKQTQDESPVYCLEFNSQQTQLLAAGDAQGTVKVWQLSTEFTEQGPREAEDLDCLAAEVAA
chain 2: MEPGKRRTKDDTWKADDLRKHLWAIQSGGSKEERKHREKKLRKESEMDLPEHKEPRCRDPDQDARSRDRVAEVHTAKESPRGERDRDRQRERRRDAKDREKEKLKEKHREAEKSHSRGKDREKEKDRRARKEELRQTVAHHNLLGQETRDRQLLERAERKGRSVSKVRSEEKDEDSERGDEDRERRYRERKLQYGDSKDNPLKYWLYKEEGERRHRKPREPDRDNKHREKSSTREKREKYSKEKSNSFSDKGEERHKEKRHKEGFHFDDERHQSNVDRKEKSAKDEPRKRESQNGEHRNRGASSKRDGTSSQHAENLVRNHGKDKDSRRKHGHEEGSSVWWKLDQRPGGEETVEIEKEETDLENARADAYTASCEDDFEDYEDDFEVCDGDDDESSNEPESREKLEELPLAQKKEIQEIQRAINAENERIGELSLKLFQKRGRTEFEKEPRTDTNSSPSRASVCGIFVDFASASHRQKSRTQALKQKMRSTKLLRLIDLDFSFTFSLLDLPPVNEYDMYIRNFGKKNTKQAYVQCNEDNVERDIQTEEIETREVWTQHPGESTVVSGGSEQRDTSDAVVMPKIDTPRLCSFLRAACQVMAVLLEEDRLAAEPSWNLRAQDRALYFSDSSSQLNTSLPFLQNRKVSSLHTSRVQRQMVVSVHDLPEKSFVPLLDSKYVLCVWDIWQPSGPQKVLICESQVTCCCLSPLKAFLLFAGTAHGSVVVWDLREDSRLHYSVTLSDGFWTFRTATFSTDGILTSVNHRSPLQAVEPISTSVHKKQSFVLSPFSTQEEMSGLSFHIASLDESGVLNVWVVVELPKADIAGSISDLGLMPGGRVKLVHSALIQLGDSLSHKGNEFWGTTQTLNVKFLPSDPNHFIIGTDMGLISHGTRQDLRVAPKLFKPQQHGIRPVKVNVIDFSPFGEPIFLAGCSDGSIRLHQLSSAFPLLQWDSSTDSHAVTGLQWSPTRPAVFLVQDDTSNIYIWDLLQSDLGPVAKQQVSPNRLVAMAAVGEPEKAGGSFLALVLARASGSIDIQHLKRRWAAPEVDECNRLRLLLQEALWPEGKLHK

Variants of: B1
Experiment: GFP-trap purification, TMT-labelling and mass spectrometry
Details: with WDR60 [human (endogenous in RPE1)]; RPE1 WDR34 KO cell lines expressing GFP proteins, serum-starved for 24 h; read off a plot
reportedProperty: ratio to parent

[
  {
    "var": "chain 1 R182W",
    "ratio to parent": 1.7
  },
  {
    "var": "chain 1 K436R",
    "ratio to parent": 1.4
  },
  {
    "var": "chain 1 A341V",
    "ratio to parent": 1.3
  },
  {
    "var": "chain 1 R206C",
    "ratio to parent": 1.5
  }
]
